- target.or.test.system: huCTLA4 (Homo sapiens, UniProt P16410)
- Sequence (P16410 36-223): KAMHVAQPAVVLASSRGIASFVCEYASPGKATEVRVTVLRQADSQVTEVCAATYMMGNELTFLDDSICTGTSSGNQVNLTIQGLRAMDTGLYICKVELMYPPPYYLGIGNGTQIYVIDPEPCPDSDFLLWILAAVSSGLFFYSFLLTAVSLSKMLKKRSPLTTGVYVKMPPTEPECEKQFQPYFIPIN
- method: Flow binding to CHO cells stably expressing CTLA4
- Design: huCTLA4 and huPD-L1, full-length mammalian surface expression constructs were generated; expressed in transfected cells; host or cells: CHO cells, lentiviral transduction, sorted to >98% purity
- applied.conditions: Table E19; MFI at 33.3 nM relative to WT CD80 ECD-Fc (Abcam)
Listing of recorded CTLA4 Fold change to WT CD80 by entry.
Respond numerically; units are fold and should not be typed.

Solved cases below.
Quick one: CTLA4 Fold change to WT CD80 of E35D/M47V (protein) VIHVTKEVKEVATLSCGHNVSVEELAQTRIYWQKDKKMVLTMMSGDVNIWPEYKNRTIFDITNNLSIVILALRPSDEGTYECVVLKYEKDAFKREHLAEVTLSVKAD ?
1.1

Quick one: CTLA4 Fold change to WT CD80 of E35D/D46V/M47L/L85Q (protein) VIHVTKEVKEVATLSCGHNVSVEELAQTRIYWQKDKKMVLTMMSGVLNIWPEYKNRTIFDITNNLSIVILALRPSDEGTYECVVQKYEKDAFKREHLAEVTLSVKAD ?
0.9

Quick one: CTLA4 Fold change to WT CD80 of E35D/D46V/M47V/N48K/V68M (protein) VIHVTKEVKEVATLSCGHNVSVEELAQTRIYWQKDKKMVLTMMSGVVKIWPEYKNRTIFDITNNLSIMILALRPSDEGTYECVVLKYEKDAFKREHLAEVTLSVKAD ?
0.6

// next entry
Quick one: CTLA4 Fold change to WT CD80 of E35D/M47V/V68M/L85Q/K89N (protein) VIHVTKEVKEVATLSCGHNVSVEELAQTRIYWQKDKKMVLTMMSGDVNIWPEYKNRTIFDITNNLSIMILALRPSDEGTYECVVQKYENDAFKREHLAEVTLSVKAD ?
0.7

Measured values drawn from patent US20220177587A1 for this set.
